// data source = the supplement of paper PMC11061612

System: SK-PN-DW (Other Solid Carcinomas);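 further: after 72 h of two-drug dosing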
protocolDescription: Bliss excess, mean over the matrix (fraction); higher = more synergy
molecules and their reported Bliss excess
Returns: the value as a bare number; no unit string appended.

molecule="Cn1cnc2c(F)c(Nc3ccc(Br)cc3Cl)c(C(=O)NOCCO)cc21 [Selumetinib] + C[C@@H]1COCCN1C2=NC(=NC(=C2)C3(CC3)[S@](=N)(=O)C)C4=C5C=CNC5=NC=C4 [AZD6738] (first compound max 10 µM, 7x7, partner max 10 µM)" recordedvalue=-0.0011
molecule="N#Cc1cnc(Nc2cc(NC[C@H]3CNCCO3)c(C(F)(F)F)cn2)cn1 [SRA737] + O=c1[nH]cc(F)c(=O)[nH]1 [5-Fluorouracil] (first compound max 10 µM, 7x7, partner max 20 µM)" recordedvalue=0.0243
molecule="C[C@@H](Oc1cc(-c2cnn(C3CCNCC3)c2)cnc1N)c1c(Cl)ccc(F)c1Cl [Crizotinib] + CC1=C(C(=CC=C1)Cl)NC(=O)C2=CN=C(S2)NC3=CC(=NC(=N3)C)N4CCN(CC4)CCO [Dasatinib] (first compound max 10 µM, 7x7, partner max 2 µM)" recordedvalue=-0.0426
molecule="NC1(C(=O)N[C@@H](CCO)c2ccc(Cl)cc2)CCN(c2ncnc3[nH]ccc23)CC1 [Capivasertib] + Cn1cnc2c(F)c(Nc3ccc(Br)cc3Cl)c(C(=O)NOCCO)cc21 [Selumetinib] (first compound max 10 µM, 7x7, partner max 10 µM)" recordedvalue=0.032
molecule="C=CCn1c(=O)c2cnc(Nc3ccc(N4CCN(C)CC4)cc3)nc2n1-c1cccc(C(C)(C)O)n1 [AZD1775] + CCc1c2c(nc3ccc(O)cc13)-c1cc3c(c(=O)n1C2)COC(=O)[C@]3(O)CC [SN-38] (first compound max 1 µM, partner max 0.3 µM)" recordedvalue=-0.0903

Query string: Given the entry CC1(C)CCC(CN2CCN(c3ccc(C(=O)NS(=O)(=O)c4ccc(NCC5CCOCC5)c([N+](=O)[O-])c4)c(Oc4cnc5[nH]ccc5c4)c3)CC2)=C(c2ccc(Cl)cc2)C1 [Venetoclax] + C=CCn1c(=O)c2cnc(Nc3ccc(N4CCN(C)CC4)cc3)nc2n1-c1cccc(C(C)(C)O)n1 [AZD1775] (first compound max 1 µM, partner max 1 µM) , report its measured Bliss excess.
Result string: 0.0457

Query string: Bliss excess lookup needed for COc1cc2ncnc(Nc3ccc(F)c(Cl)c3)c2cc1OCCCN1CCOCC1 [Gefitinib] + CC(C)n1c(=O)n(C)c2cnc3cc(F)c(-c4ccc(OCCCN5CCCCC5)nc4)cc3c21 [AZD1390] (first compound max 10 µM, 7x7, partner max 0.3 µM) , thanks.
Result string: -0.0293

Query string: Report Bliss excess for Cc1cc2ncnn2cc1Nc1ncc2c(n1)n(C1CCOCC1)c(=O)n2C [AZD7648] + C[C@@H]1COCCN1C2=NC(=NC(=C2)C3(CC3)[S@](=N)(=O)C)C4=C5C=CNC5=NC=C4 [AZD6738] (first compound max 10 µM, 7x7, partner max 10 µM) please.
Result string: 0.0154
